- condition_notes: in isobutanol, 318.15 K
measured_attribute: solubility (mole fraction)
Reply: number alone, nothing else.

Q: Give its solubility (mole fraction) value. Item: O=C(N[C@@H](Cc1c[nH]c2ccccc12)C(=O)O)OCc1ccccc1
Ans: 0.0547

###

- condition_notes: in water, 283.15 K
measured_attribute: solubility (mole fraction)
Reply: number alone, nothing else.

Q: Give its solubility (mole fraction) value. Item: O=C(N[C@@H](Cc1c[nH]c2ccccc12)C(=O)O)OCc1ccccc1
Ans: 4.06e-05

###

- condition_notes: in ethanol, 293.15 K
measured_attribute: solubility (mole fraction)

Q: Give its solubility (mole fraction) value. Item: O=C(N[C@@H](Cc1c[nH]c2ccccc12)C(=O)O)OCc1ccccc1
Ans: 0.0826

###

- condition_notes: in n-propanol, 293.15 K
measured_attribute: solubility (mole fraction)
Reply: number alone, nothing else.

Q: Give its solubility (mole fraction) value. Item: O=C(N[C@@H](Cc1c[nH]c2ccccc12)C(=O)O)OCc1ccccc1
Ans: 0.0502

###

- condition_notes: in n-butanol, 288.15 K
measured_attribute: solubility (mole fraction)

Q: Give its solubility (mole fraction) value. Item: O=C(N[C@@H](Cc1c[nH]c2ccccc12)C(=O)O)OCc1ccccc1
Ans: 0.0278

###

- condition_notes: in n-propanol, 318.15 K
measured_attribute: solubility (mole fraction)
Reply: number alone, nothing else.

Q: Give its solubility (mole fraction) value. Item: O=C(N[C@@H](Cc1c[nH]c2ccccc12)C(=O)O)OCc1ccccc1
Ans: 0.123

###

- condition_notes: in acetone, 298.15 K
measured_attribute: solubility (mole fraction)
Reply: number alone, nothing else.

Q: Give its solubility (mole fraction) value. Item: O=C(N[C@@H](Cc1c[nH]c2ccccc12)C(=O)O)OCc1ccccc1
Ans: 0.306

###

- condition_notes: in acetonitrile, 293.15 K
measured_attribute: solubility (mole fraction)

Q: Give its solubility (mole fraction) value. Item: O=C(N[C@@H](Cc1c[nH]c2ccccc12)C(=O)O)OCc1ccccc1
Ans: 0.0305

###

- condition_notes: in acetone, 323.15 K
measured_attribute: solubility (mole fraction)
Reply: number alone, nothing else.

Q: Give its solubility (mole fraction) value. Item: O=C(N[C@@H](Cc1c[nH]c2ccccc12)C(=O)O)OCc1ccccc1
Ans: 0.557

###

- condition_notes: in n-pentanol, 298.15 K
measured_attribute: solubility (mole fraction)
Reply: number alone, nothing else.

Q: Give its solubility (mole fraction) value. Item: O=C(N[C@@H](Cc1c[nH]c2ccccc12)C(=O)O)OCc1ccccc1
Ans: 0.0322

###

- condition_notes: in ethyl acetate, 318.15 K
measured_attribute: solubility (mole fraction)

Q: Give its solubility (mole fraction) value. Item: O=C(N[C@@H](Cc1c[nH]c2ccccc12)C(=O)O)OCc1ccccc1
Ans: 0.118

###

- condition_notes: in n-propanol, 288.15 K
measured_attribute: solubility (mole fraction)

Q: Give its solubility (mole fraction) value. Item: O=C(N[C@@H](Cc1c[nH]c2ccccc12)C(=O)O)OCc1ccccc1
Ans: 0.0389

###

- condition_notes: in ethanol, 283.15 K
measured_attribute: solubility (mole fraction)

Q: Give its solubility (mole fraction) value. Item: O=C(N[C@@H](Cc1c[nH]c2ccccc12)C(=O)O)OCc1ccccc1
Ans: 0.0567

###

- condition_notes: in acetonitrile, 313.15 K
measured_attribute: solubility (mole fraction)

Q: Give its solubility (mole fraction) value. Item: O=C(N[C@@H](Cc1c[nH]c2ccccc12)C(=O)O)OCc1ccccc1
Ans: 0.0967
